- target_or_system: α4β1 integrin (Homo sapiens (Human), UniProt P05556+P13612)
- Sequence (P13612 34-1032): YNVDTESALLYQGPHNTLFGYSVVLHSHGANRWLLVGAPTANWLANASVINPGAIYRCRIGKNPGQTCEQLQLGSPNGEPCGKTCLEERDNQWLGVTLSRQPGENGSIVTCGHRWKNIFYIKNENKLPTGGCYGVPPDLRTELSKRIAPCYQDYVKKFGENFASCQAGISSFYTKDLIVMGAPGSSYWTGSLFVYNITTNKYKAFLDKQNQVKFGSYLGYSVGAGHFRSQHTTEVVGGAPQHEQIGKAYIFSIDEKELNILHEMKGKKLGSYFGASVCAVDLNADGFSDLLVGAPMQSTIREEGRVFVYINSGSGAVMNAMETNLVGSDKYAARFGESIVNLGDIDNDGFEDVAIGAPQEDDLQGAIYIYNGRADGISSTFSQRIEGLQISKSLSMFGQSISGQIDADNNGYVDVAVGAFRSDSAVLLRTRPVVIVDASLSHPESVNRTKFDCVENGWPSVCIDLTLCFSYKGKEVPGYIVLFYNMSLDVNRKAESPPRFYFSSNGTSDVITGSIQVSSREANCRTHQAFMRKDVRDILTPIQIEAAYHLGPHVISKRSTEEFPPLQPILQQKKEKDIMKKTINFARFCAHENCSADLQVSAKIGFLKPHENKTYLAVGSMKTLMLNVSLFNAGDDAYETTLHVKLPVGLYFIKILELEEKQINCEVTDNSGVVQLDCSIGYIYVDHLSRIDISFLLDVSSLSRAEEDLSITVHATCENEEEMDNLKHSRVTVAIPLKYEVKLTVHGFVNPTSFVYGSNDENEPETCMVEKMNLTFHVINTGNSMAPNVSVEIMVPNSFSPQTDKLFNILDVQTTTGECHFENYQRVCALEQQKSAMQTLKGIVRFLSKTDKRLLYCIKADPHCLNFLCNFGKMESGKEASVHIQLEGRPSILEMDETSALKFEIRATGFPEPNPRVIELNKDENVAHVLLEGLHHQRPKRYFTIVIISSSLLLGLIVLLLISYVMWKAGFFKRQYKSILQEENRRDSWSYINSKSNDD
- Sequence (P05556 21-798): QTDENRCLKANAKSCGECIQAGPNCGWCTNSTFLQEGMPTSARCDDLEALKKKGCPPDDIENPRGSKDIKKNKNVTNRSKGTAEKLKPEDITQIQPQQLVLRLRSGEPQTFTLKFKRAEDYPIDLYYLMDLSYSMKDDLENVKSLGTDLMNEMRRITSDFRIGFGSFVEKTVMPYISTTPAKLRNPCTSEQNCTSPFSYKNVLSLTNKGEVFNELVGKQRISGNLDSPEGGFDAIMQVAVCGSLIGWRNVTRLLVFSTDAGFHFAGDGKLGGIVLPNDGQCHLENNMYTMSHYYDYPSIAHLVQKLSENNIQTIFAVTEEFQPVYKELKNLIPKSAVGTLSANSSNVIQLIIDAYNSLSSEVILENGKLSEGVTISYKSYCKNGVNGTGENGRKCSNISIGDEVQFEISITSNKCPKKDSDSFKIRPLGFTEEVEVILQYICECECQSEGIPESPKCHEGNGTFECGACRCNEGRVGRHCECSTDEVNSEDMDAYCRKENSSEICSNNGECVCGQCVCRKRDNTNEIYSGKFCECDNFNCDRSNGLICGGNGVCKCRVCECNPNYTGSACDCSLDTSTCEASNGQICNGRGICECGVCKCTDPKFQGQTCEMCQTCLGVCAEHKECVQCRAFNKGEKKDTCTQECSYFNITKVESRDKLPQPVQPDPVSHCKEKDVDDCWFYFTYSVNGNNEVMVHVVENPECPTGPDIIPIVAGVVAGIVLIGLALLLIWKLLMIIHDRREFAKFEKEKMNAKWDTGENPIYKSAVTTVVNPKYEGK
- assay_notes: Integrin Adhesion Assay: Protocol 5 (VCAM-coated plate, RPMI-8866 cells with stable LOF mutation of the ITGB7 gene)
- Assay type: cell-based
- particulars: RPMI-8866 cells with stable LOF mutation of the ITGB7 gene; read-out: Mean IC50 α4β1 KO^b
pIC50: −log10 of the molar value.
property: pIC50

Example results:
Input CC1(C(=O)N[C@@H](Cc2cccc3c(-c4nccc5ccc(CCCN6CCCCC6)cc45)cccc23)C(=O)O)CC2CCC(C1)N2CC(F)(F)F (stereo partly drawn) [Compound 548] . Output pIC50: < 6.00

Input COc1ccc(CN2C[C@@H](C)O[C@@H](C)C2)c(OC)c1-c1cccc2c(C[C@H](NC(=O)c3c(C)cccc3F)C(=O)O)cccc12 [Compound 651] . Output pIC50: 6.00 to 7.00

Input COc1ccc(CN2CCC(F)(F)CC2)c(OC)c1-c1cccc2c(C[C@H](NC(=O)c3c(F)ccnc3C)C(=O)O)cccc12 [Compound 615] . Output pIC50: < 6.00

Input Cn1c(=O)c(-c2cccc3c(C[C@H](NC(=O)c4c(F)cc(C5CCC(F)(F)CC5)cc4F)C(=O)O)cccc23)c(C(F)(F)F)c2ccccc21 [Compound 381] . Output pIC50: < 6.00

More entries:
Input COc1ccc(CN2CCC(F)(F)CC2)c(OC)c1-c1cccc2c(C[C@H](NC(=O)C3(C(F)(F)F)CCN(C4COCC4(F)F)CC3)C(=O)O)cccc12 (single isomer, unassigned) [Compound 639] . Output pIC50: 6.00 to 7.00

Input COc1ccc(CN(C)C)c(OC)c1-c1cccc2c(C[C@H](NC(=O)c3c(F)ccc(F)c3C)C(=O)O)cccc12 [Compound 589] . Output pIC50: < 6.00

* * *

- target_or_system: α4β7 integrin (Homo sapiens (Human), UniProt P13612+P26010)
- Sequence (P13612 34-1032): as the sequence (P13612 34-1032) above
- Sequence (P26010 20-798): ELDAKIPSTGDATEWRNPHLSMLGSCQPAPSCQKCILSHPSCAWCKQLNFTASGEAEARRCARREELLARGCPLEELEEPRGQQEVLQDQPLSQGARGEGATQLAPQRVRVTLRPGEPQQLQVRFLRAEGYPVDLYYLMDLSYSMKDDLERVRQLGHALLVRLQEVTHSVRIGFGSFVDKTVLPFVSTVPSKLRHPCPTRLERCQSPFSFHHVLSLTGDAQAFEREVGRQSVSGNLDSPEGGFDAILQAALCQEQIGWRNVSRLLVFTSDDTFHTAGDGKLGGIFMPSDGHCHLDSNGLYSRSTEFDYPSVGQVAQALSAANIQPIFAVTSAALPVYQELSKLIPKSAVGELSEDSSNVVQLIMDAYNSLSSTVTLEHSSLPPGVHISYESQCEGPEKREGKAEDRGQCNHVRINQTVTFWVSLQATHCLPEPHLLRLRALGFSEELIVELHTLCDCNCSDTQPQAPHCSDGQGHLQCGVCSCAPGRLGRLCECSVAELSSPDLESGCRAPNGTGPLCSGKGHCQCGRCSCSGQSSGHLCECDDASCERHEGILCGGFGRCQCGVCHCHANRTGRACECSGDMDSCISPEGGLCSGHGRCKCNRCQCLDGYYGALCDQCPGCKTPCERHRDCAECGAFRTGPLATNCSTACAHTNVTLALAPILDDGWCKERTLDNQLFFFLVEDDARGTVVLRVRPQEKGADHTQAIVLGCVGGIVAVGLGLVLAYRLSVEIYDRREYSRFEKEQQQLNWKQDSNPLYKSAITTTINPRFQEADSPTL
- assay_notes: Integrin Adhesion Assay: Protocol 4 (MAdCAM-coated plate, RPMI-8866 cells with stable LOF mutation of the ITGB1 gene)
- Type: cell-based
- particulars: Protocol 4; RPMI-8866 cells with LOF mutation of ITGB1, MAdCAM; read-out: Mean IC50 α4β7 KO
Reported values of IC50 for individual entries

Example results:
Input `COc1ccc(CCN2CCC(F)CC2)c(OC)c1-c1cccc2c(C[C@H](NC(=O)C3(C(F)(F)F)CCN(CC(F)(F)F)CC3)C(=O)O)cccc12` . Output IC50: < 10 nM

Input `O=C(O)[C@H](Cc1cccc2c(-c3nccc4ccc(CCCN5CCCCC5)cc34)cccc12)NC(=O)C1(C(F)(F)F)CCN(CC(F)(F)F)CC1` . Output IC50: < 10 nM

Input `COc1ccc(CN2CCC3(CCCCC3)CC2)c(OC)c1-c1cccc2c(C[C@H](NC(=O)C3(C(F)(F)F)CCN(CC(F)(F)F)CC3)C(=O)O)cccc12` . Output IC50: < 10 nM

Input Cn1c(=O)c(-c2cccc3c(C[C@H](NC(=O)C4(C(F)(F)F)CCCN(CC5COC5)C4)C(=O)O)cccc23)c(C(F)(F)F)c2ccccc21 (stereo partly drawn) . Output IC50: 100 to 1000 nM

Input `COC1CN(Cc2cnc(-c3cccc4c(C[C@H](NC(=O)C5(C(F)(F)F)CCN(CC(F)F)CC5)C(=O)O)cccc34)c3ccccc23)C1` . Output IC50: < 10 nM

More entries:
Input `COc1ccc(CN2CCC(C(F)(F)F)CC2)cc1-c1cccc2c(C[C@H](NC(=O)C3(C(F)(F)F)CCN(CC(F)F)CC3)C(=O)O)cccc12` . Output IC50: < 10 nM

Input `COc1ccc(CN2CCC(C)(C)CC2)cc1-c1cccc2c(C[C@H](NC(=O)C3(C(F)(F)F)CCN(CC(F)(F)F)CC3)C(=O)O)cccc12` . Output IC50: < 10 nM

Input `COc1cccc(CCN2CCCCC2)c1-c1cccc2c(C[C@H](NC(=O)C3(C(F)(F)F)CCN(CC(F)(F)F)CC3)C(=O)O)cccc12` . Output IC50: < 10 nM

Input `O=C(O)[C@H](Cc1cccc2c(-c3ncc(CN4CCCCC4)c4c3CCCC4)cccc12)NC(=O)C1(C(F)(F)F)CCN(CC(F)(F)F)CC1` . Output IC50: < 10 nM
